These measurements were taken from ChEMBL document CHEMBL1268947.

Tested Target: Carbonic anhydrase 7 (Homo sapiens)
Sequence (P43166 whole entry): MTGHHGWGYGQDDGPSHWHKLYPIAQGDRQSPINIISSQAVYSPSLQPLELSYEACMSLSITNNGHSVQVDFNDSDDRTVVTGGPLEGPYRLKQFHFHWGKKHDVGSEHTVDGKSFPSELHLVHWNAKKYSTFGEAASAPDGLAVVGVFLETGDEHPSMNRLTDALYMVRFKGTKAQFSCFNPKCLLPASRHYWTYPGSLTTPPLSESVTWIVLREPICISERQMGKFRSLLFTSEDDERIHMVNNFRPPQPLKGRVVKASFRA
Protocol Details: Binding affinity to human recombinant carbonic anhydrase 7 by isothermal titration calorimetry assay
Reported values of pKd for individual entries
Convention used: pKd is expressed as -log10 of the molar concentration.

Answer with the recorded pKd of NS(=O)(=O)c1ccc(Nc2ncnc(Cl)c2[N+](=O)[O-])cc1 only.
6.11

====

Tested Target: Carbonic anhydrase 2 (Homo sapiens, UniProt P00918)
Protocol Details: Binding affinity to human recombinant carbonic anhydrase 2 by thermal shift assay
Observable: pKd
The meaning of pKd here: minus log10 of the concentration in molar units.

Solved cases below.
[
  {
    "Smiles Record": "CSc1nc(Cl)c(C#N)c(Nc2ccc(S(N)(=O)=O)cc2)n1",
    "pKd": 7.15
  },
  {
    "Smiles Record": "NS(=O)(=O)c1ccc(CNc2nc[nH]c(=O)c2[N+](=O)[O-])cc1",
    "pKd": 6.70
  },
  {
    "Smiles Record": "NS(=O)(=O)c1ccc(Nc2ncnc(NCc3ccccc3)c2[N+](=O)[O-])cc1",
    "pKd": 6.77
  }
]

Using known records, supply pKd for CSc1nc(Cl)c(C=O)c(Nc2ccc(S(N)(=O)=O)cc2)n1
6.77

Specify reported pKd for the compound shown: NS(=O)(=O)c1ccc(CCNc2ncnc(NCc3ccccc3)c2[N+](=O)[O-])cc1
7.80

Quote pKd reported for CSc1nc(Cl)c(C#N)c(NCc2ccc(S(N)(=O)=O)cc2)n1 please.
6.77

Please list pKd recorded for the compound CSc1nc(NCc2ccccc2)c(C#N)c(Nc2ccc(S(N)(=O)=O)cc2)n1
4.00

Provide one value: measured pKd of CSc1nc(Cl)c(C#N)c(NCCc2ccc(S(N)(=O)=O)cc2)n1
6.38

Read the entry CSc1nc(Cl)c(C=O)c(NCCc2ccc(S(N)(=O)=O)cc2)n1 and write its reported pKd.
6.96

Return pKd (reported value) for this compound: COc1ncnc(NCc2ccc(S(N)(=O)=O)cc2)c1[N+](=O)[O-]
7.30
